The values you see were collected from patent US20240390468A1.

target: T1, MHC class 1 allele A*02:01; assay: REVEAL on-rate assay, HLA-A*02:01
T1 construct: also called HLA-A2; HLA-A*02:01
The reader will find reported On-rate T1/2 values listed item by item below.

- binder: "FLWGSKAHA (also called p270; M9-A2-270) [MAGE-A9 270 (MAGE-A9 peptide antigen 270, FLWGSKAHA)]"
  On-rate T1/2 / h: 9.43
- binder: "LMLGEFLKL [SurA2.M (survivin peptide antigen HLA-A2, LMLGEFLKL)]"
  On-rate T1/2 / h: 9.36
- binder: "KVAELVHFL (also called p111) [MAGE-A9 111 (MAGE-A9 peptide antigen 111, KVAELVHFL)]"
  On-rate T1/2 / h: 9.52
- binder: "ALSVMGVYV (also called p223; M9-A2-223) [MAGE-A9 223 (MAGE-A9 peptide antigen 223, ALSVMGVYV)]"
  On-rate T1/2 / h: 9.17
